Hello, the source for this data is the supplement of paper PMC10307832, in case you need it.

Recorded relative viability, one value per entry.
test system: ABC-1; experiment: relative viability (nuclei count vs DMSO), 5 days (fraction); higher = more cells survive; conditions: first compound 0.2 µM
Please reply with the number alone, leaving off any unit.

Task: API: value(readout= relative viability, system= ABC-1, query= COCC1(CO)C(=O)C2CCN1CC2 (stereo not given) [PRIMA-1MET] + COc1cc2c(Oc3ccc(NC(=O)C4(C(=O)Nc5ccc(F)cc5)CC4)cc3F)ccnc2cc1OCCCN1CCOCC1 [Foretinib] (partner 0.25 µM) )
Output: 1.19

###

system: NCI-H3122; assay: relative viability (nuclei count vs DMSO), 5 days (fraction); higher = more cells survive; conditions: first compound 20 µM
measured.property: relative viability
# respond with the number and nothing more

{"columns": ["molecule", "relative viability"],
 "data": [
  ["COCC1(CO)C(=O)C2CCN1CC2 (configuration not stated) [PRIMA-1MET] + CS(=O)(=O)N1CCN(Cc2cc3nc(-c4cccc5[nH]ncc45)nc(N4CCOCC4)c3s2)CC1 [Pictilisib] (partner 1 µM)", 0.52]
]}

Moving on to another molecule below.
Task: Look up relative viability for this molecule: COCC1(CO)C(=O)C2CCN1CC2 (configuration not stated) [PRIMA-1MET] + CC1(C)CCC(c2ccc(Cl)cc2)=C(CN2CCN(c3ccc(C(=O)NS(=O)(=O)c4ccc(N[C@H](CCN5CCOCC5)CSc5ccccc5)c(S(=O)(=O)C(F)(F)F)c4)cc3)CC2)C1 [Navitoclax] (partner 0.5 µM)
Output: 0.976
